Biological target: MAP4K4 (human) (UniProt O95819)
Sequence (O95819 whole entry, looked up): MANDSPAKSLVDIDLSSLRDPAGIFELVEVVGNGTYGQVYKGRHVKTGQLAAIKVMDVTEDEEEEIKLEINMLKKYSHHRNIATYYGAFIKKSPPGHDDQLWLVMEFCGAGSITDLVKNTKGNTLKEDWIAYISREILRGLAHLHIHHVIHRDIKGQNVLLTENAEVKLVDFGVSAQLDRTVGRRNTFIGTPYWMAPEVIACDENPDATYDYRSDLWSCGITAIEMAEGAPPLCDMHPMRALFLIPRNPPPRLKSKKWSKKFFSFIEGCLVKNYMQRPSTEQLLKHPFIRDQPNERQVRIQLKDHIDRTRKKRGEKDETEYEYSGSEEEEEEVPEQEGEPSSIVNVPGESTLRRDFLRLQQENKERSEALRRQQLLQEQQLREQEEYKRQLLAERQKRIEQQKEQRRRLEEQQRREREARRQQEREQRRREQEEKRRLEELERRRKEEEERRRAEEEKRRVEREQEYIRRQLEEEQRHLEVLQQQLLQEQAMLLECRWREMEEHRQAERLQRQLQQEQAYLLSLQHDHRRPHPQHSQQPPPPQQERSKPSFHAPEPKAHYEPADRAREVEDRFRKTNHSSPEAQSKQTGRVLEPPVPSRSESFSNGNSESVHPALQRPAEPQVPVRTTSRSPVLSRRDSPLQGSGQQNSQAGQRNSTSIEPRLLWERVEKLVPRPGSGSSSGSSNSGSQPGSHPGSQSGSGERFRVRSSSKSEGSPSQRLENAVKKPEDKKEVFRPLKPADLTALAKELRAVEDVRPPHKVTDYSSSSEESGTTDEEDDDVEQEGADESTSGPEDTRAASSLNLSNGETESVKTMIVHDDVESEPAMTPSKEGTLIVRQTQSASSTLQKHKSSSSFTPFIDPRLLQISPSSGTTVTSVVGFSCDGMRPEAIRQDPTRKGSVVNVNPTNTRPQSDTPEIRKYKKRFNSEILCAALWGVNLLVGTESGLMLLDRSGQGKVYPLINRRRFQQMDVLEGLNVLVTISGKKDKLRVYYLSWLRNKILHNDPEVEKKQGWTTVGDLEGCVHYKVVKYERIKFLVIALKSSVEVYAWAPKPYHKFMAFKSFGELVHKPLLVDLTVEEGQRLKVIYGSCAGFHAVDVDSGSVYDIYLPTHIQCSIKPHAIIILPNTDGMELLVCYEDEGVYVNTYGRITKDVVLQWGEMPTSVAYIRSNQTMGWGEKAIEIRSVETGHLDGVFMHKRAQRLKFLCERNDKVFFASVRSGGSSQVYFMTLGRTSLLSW
Assay: KINOMEscan competition binding
Details: compound 10.0 µM
This listing pairs compounds with measured kinase still bound, per cent of control.

{"Line Notation": "CCN1CCN(Cc2ccc(NC(=O)c3ccc(C)c(/C=C/c4cnc(Nc5cc(N6CCNCC6)nc(C)n5)cn4)c3)cc2C(F)(F)F)CC1", "Target": "MAP4K4 (human) (UniProt O95819)", "kinase still bound, per cent of control, %": 0.1}
{"Line Notation": "COc1cc(N2CCC(N3CCN(C)CC3)CC2)ccc1Nc1ncc(Cl)c(Nc2ccccc2S(=O)(=O)C(C)C)n1", "Target": "MAP4K4 (human) (UniProt O95819)", "kinase still bound, per cent of control, %": 5.4}
{"Line Notation": "CCN1CCN(Cc2ccc(NC(=O)c3ccc(C)c(Oc4ccnc5[nH]ccc45)c3)cc2C(F)(F)F)CC1", "Target": "MAP4K4 (human) (UniProt O95819)", "kinase still bound, per cent of control, %": 0}
{"Line Notation": "CCOc1cc(N2CCC(N3CCCCC3)CC2)ccc1Nc1nc(Nc2ccccc2S(=O)(=O)C(C)C)c2cn[nH]c2n1", "Target": "MAP4K4 (human) (UniProt O95819)", "kinase still bound, per cent of control, %": 100}

----------
This listing pairs compounds with measured kinase still bound, per cent of control.
Molecular target: MLTK (human)
Assay: KINOMEscan competition binding
Conditions: compound 10.0 µM
Endpoint Name: kinase still bound, per cent of control

{"Line Notation": "COc1cc(N2CCC(N3CCN(C)CC3)CC2)ccc1Nc1ncc(Cl)c(Nc2ccccc2S(=O)(=O)C(C)C)n1", "Endpoint Name": "kinase still bound, per cent of control", "Experimental Result": "40%"}
{"Line Notation": "CCN1CCN(Cc2ccc(NC(=O)c3ccc(C)c(Oc4ccnc5[nH]ccc45)c3)cc2C(F)(F)F)CC1", "Endpoint Name": "kinase still bound, per cent of control", "Experimental Result": "0.35%"}
{"Line Notation": "CCOc1cc(N2CCC(N3CCCCC3)CC2)ccc1Nc1nc(Nc2ccccc2S(=O)(=O)C(C)C)c2cn[nH]c2n1", "Endpoint Name": "kinase still bound, per cent of control", "Experimental Result": "100%"}
{"Line Notation": "CCN1CCN(Cc2ccc(NC(=O)c3ccc(C)c(/C=C/c4cnc(Nc5cc(N6CCNCC6)nc(C)n5)cn4)c3)cc2C(F)(F)F)CC1", "Endpoint Name": "kinase still bound, per cent of control", "Experimental Result": "1.2%"}

----------
Target: PRKAA1 (human)
Assay: KINOMEscan competition binding
Settings: compound 10.0 µM

{"Line Notation": "COc1cc(N2CCC(N3CCN(C)CC3)CC2)ccc1Nc1ncc(Cl)c(Nc2ccccc2S(=O)(=O)C(C)C)n1", "kinase still bound, per cent of control (%)": 0.1}
{"Line Notation": "CCN1CCN(Cc2ccc(NC(=O)c3ccc(C)c(Oc4ccnc5[nH]ccc45)c3)cc2C(F)(F)F)CC1", "kinase still bound, per cent of control (%)": 33}
{"Line Notation": "CCOc1cc(N2CCC(N3CCCCC3)CC2)ccc1Nc1nc(Nc2ccccc2S(=O)(=O)C(C)C)c2cn[nH]c2n1", "kinase still bound, per cent of control (%)": 51}
{"Line Notation": "CCN1CCN(Cc2ccc(NC(=O)c3ccc(C)c(/C=C/c4cnc(Nc5cc(N6CCNCC6)nc(C)n5)cn4)c3)cc2C(F)(F)F)CC1", "kinase still bound, per cent of control (%)": 18}

----------
Tested on: KIT (human), P10721 [V559D/V654A]
Sequence (P10721 whole entry V559D/V654A, looked up): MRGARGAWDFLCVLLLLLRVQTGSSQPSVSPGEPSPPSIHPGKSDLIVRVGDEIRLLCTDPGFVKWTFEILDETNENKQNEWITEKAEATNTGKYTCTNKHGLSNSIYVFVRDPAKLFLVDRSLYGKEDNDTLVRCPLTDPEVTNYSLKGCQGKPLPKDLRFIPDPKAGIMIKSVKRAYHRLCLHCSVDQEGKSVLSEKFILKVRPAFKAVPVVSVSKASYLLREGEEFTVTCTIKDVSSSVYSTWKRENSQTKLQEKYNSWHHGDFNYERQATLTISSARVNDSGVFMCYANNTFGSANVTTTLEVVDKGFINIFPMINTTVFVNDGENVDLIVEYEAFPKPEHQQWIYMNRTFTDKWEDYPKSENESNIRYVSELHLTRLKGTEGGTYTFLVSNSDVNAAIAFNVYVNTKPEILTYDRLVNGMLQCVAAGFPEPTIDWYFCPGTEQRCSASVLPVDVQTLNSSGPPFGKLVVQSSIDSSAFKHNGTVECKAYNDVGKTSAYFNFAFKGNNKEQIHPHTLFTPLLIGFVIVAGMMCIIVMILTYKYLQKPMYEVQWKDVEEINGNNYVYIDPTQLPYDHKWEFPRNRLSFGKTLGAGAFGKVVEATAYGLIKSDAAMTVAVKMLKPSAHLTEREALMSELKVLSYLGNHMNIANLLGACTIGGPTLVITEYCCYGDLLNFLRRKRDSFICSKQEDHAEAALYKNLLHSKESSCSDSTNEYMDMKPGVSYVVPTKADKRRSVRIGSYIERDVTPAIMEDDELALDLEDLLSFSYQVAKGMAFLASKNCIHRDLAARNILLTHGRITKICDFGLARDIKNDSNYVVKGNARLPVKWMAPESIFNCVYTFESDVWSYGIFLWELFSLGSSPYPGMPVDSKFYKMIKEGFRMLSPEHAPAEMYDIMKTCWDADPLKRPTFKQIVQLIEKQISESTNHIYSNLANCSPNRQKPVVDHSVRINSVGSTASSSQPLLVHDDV
Experiment: KINOMEscan competition binding
Details: compound 10.0 µM
Endpoint Name: kinase still bound, per cent of control (%)

{"Line Notation": "CCN1CCN(Cc2ccc(NC(=O)c3ccc(C)c(/C=C/c4cnc(Nc5cc(N6CCNCC6)nc(C)n5)cn4)c3)cc2C(F)(F)F)CC1", "Target": "KIT (human), P10721 [V559D/V654A]", "Experimental Result": 3.7}
{"Line Notation": "CCN1CCN(Cc2ccc(NC(=O)c3ccc(C)c(Oc4ccnc5[nH]ccc45)c3)cc2C(F)(F)F)CC1", "Target": "KIT (human), P10721 [V559D/V654A]", "Experimental Result": 2.7}
{"Line Notation": "COc1cc(N2CCC(N3CCN(C)CC3)CC2)ccc1Nc1ncc(Cl)c(Nc2ccccc2S(=O)(=O)C(C)C)n1", "Target": "KIT (human), P10721 [V559D/V654A]", "Experimental Result": 7.4}
{"Line Notation": "CCOc1cc(N2CCC(N3CCCCC3)CC2)ccc1Nc1nc(Nc2ccccc2S(=O)(=O)C(C)C)c2cn[nH]c2n1", "Target": "KIT (human), P10721 [V559D/V654A]", "Experimental Result": 100}

----------
This listing pairs compounds with measured kinase still bound, per cent of control.
Target: MAP4K3 (human)
Experiment: KINOMEscan competition binding
Details: compound 10.0 µM

{"Line Notation": "CCOc1cc(N2CCC(N3CCCCC3)CC2)ccc1Nc1nc(Nc2ccccc2S(=O)(=O)C(C)C)c2cn[nH]c2n1", "Target": "MAP4K3 (human)", "kinase still bound, per cent of control / %": 10}
{"Line Notation": "CCN1CCN(Cc2ccc(NC(=O)c3ccc(C)c(Oc4ccnc5[nH]ccc45)c3)cc2C(F)(F)F)CC1", "Target": "MAP4K3 (human)", "kinase still bound, per cent of control / %": 18}
{"Line Notation": "CCN1CCN(Cc2ccc(NC(=O)c3ccc(C)c(/C=C/c4cnc(Nc5cc(N6CCNCC6)nc(C)n5)cn4)c3)cc2C(F)(F)F)CC1", "Target": "MAP4K3 (human)", "kinase still bound, per cent of control / %": 0.9}
{"Line Notation": "COc1cc(N2CCC(N3CCN(C)CC3)CC2)ccc1Nc1ncc(Cl)c(Nc2ccccc2S(=O)(=O)C(C)C)n1", "Target": "MAP4K3 (human)", "kinase still bound, per cent of control / %": 2.5}

----------
Tested on: ABL1 (human), P00519 [E255K]
Sequence (P00519 whole entry E255K, looked up): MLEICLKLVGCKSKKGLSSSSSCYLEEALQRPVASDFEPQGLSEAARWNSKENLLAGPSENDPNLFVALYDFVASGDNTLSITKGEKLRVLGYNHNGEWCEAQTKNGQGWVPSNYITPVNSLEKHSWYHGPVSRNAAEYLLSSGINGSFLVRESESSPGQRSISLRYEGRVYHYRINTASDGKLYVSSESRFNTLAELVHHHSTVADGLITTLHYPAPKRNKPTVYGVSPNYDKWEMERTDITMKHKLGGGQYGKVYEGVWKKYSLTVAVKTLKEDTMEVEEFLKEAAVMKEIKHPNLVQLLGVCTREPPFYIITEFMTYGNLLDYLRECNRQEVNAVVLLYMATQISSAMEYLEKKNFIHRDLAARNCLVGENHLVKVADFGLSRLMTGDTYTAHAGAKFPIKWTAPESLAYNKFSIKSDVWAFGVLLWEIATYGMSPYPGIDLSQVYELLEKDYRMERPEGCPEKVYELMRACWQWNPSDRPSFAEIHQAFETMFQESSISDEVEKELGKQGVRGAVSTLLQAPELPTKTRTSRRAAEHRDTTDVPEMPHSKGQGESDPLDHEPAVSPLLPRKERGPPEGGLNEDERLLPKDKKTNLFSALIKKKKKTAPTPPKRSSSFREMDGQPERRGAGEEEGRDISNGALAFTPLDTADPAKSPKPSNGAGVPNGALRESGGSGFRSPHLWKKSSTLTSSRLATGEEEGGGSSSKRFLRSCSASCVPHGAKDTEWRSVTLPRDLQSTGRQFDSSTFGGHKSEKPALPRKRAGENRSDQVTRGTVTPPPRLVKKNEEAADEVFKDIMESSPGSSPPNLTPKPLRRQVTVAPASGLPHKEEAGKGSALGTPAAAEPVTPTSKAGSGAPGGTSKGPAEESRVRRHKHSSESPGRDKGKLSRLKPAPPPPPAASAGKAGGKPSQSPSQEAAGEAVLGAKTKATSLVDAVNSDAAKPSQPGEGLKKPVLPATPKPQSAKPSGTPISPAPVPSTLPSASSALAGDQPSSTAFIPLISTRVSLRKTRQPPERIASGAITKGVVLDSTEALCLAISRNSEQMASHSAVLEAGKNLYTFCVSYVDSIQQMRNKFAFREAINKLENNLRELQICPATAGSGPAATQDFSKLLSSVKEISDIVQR
Test: KINOMEscan competition binding
Details: compound 10.0 µM
Endpoint Name: kinase still bound, per cent of control (%)

{"Line Notation": "CCN1CCN(Cc2ccc(NC(=O)c3ccc(C)c(/C=C/c4cnc(Nc5cc(N6CCNCC6)nc(C)n5)cn4)c3)cc2C(F)(F)F)CC1", "Endpoint Name": "kinase still bound, per cent of control", "Unit Name": "%", "Experimental Result": 0.3}
{"Line Notation": "COc1cc(N2CCC(N3CCN(C)CC3)CC2)ccc1Nc1ncc(Cl)c(Nc2ccccc2S(=O)(=O)C(C)C)n1", "Endpoint Name": "kinase still bound, per cent of control", "Unit Name": "%", "Experimental Result": 19}
{"Line Notation": "CCN1CCN(Cc2ccc(NC(=O)c3ccc(C)c(Oc4ccnc5[nH]ccc45)c3)cc2C(F)(F)F)CC1", "Endpoint Name": "kinase still bound, per cent of control", "Unit Name": "%", "Experimental Result": 1.2}
{"Line Notation": "CCOc1cc(N2CCC(N3CCCCC3)CC2)ccc1Nc1nc(Nc2ccccc2S(=O)(=O)C(C)C)c2cn[nH]c2n1", "Endpoint Name": "kinase still bound, per cent of control", "Unit Name": "%", "Experimental Result": 67}

----------
This listing pairs compounds with measured kinase still bound, per cent of control.
Target: FER (human)
Test: KINOMEscan competition binding
Settings: compound 10.0 µM

{"Line Notation": "COc1cc(N2CCC(N3CCN(C)CC3)CC2)ccc1Nc1ncc(Cl)c(Nc2ccccc2S(=O)(=O)C(C)C)n1", "Target": "FER (human)", "kinase still bound, per cent of control (%)": 0.05}
{"Line Notation": "CCN1CCN(Cc2ccc(NC(=O)c3ccc(C)c(Oc4ccnc5[nH]ccc45)c3)cc2C(F)(F)F)CC1", "Target": "FER (human)", "kinase still bound, per cent of control (%)": 0.5}
{"Line Notation": "CCN1CCN(Cc2ccc(NC(=O)c3ccc(C)c(/C=C/c4cnc(Nc5cc(N6CCNCC6)nc(C)n5)cn4)c3)cc2C(F)(F)F)CC1", "Target": "FER (human)", "kinase still bound, per cent of control (%)": 78}
{"Line Notation": "CCOc1cc(N2CCC(N3CCCCC3)CC2)ccc1Nc1nc(Nc2ccccc2S(=O)(=O)C(C)C)c2cn[nH]c2n1", "Target": "FER (human)", "kinase still bound, per cent of control (%)": 9.1}

----------
Biological target: PDGFRA (human)
Assay: KINOMEscan competition binding
Details: compound 10.0 µM
This listing pairs compounds with measured kinase still bound, per cent of control.
Endpoint Name: kinase still bound, per cent of control (%)

{"Line Notation": "CCOc1cc(N2CCC(N3CCCCC3)CC2)ccc1Nc1nc(Nc2ccccc2S(=O)(=O)C(C)C)c2cn[nH]c2n1", "Endpoint Name": "kinase still bound, per cent of control", "Experimental Result": 100}
{"Line Notation": "CCN1CCN(Cc2ccc(NC(=O)c3ccc(C)c(/C=C/c4cnc(Nc5cc(N6CCNCC6)nc(C)n5)cn4)c3)cc2C(F)(F)F)CC1", "Endpoint Name": "kinase still bound, per cent of control", "Experimental Result": 2.8}
{"Line Notation": "CCN1CCN(Cc2ccc(NC(=O)c3ccc(C)c(Oc4ccnc5[nH]ccc45)c3)cc2C(F)(F)F)CC1", "Endpoint Name": "kinase still bound, per cent of control", "Experimental Result": 0.6}
{"Line Notation": "COc1cc(N2CCC(N3CCN(C)CC3)CC2)ccc1Nc1ncc(Cl)c(Nc2ccccc2S(=O)(=O)C(C)C)n1", "Endpoint Name": "kinase still bound, per cent of control", "Experimental Result": 0.85}
